Entries and their EC50
test system: HCV replicon cells; test: HCV replicon FRET / luciferase assay (96-well plates); format: cell-based; conditions: Hepatitis C virus, Table 1b; HCV replicon; read-out: EC50

MOLECULE: CNC(=O)c1c(-c2ccc(F)cc2)oc2ccc(-c3cc(C(=O)NCC(C)C)ccc3OCc3ccnc(Br)c3)cc12
EC50: 0.25 to 1 µM

If you can, please state the reported EC50 value of CNC(=O)c1c(-c2ccc(F)cc2)oc2ccc(-c3cc(C(=O)NC4(c5nnn[nH]5)CC4)ccc3C)cc12 .
1 to 10 µM

If you can, please state the reported EC50 value of CNC(=O)c1c(-c2ccc(F)cc2)oc2ccc(-c3cc(C(=O)NC4(c5ccccc5)CC4)ccc3OC(F)(F)F)cc12 .
< 0.25 µM

If you can, please state the reported EC50 value of CNC(=O)c1c(-c2ccc(F)cc2)oc2cc(N)c(-c3cc(C(=O)NCC(C)C)ccc3OC)cc12 .
< 0.25 µM

If you can, please state the reported EC50 value of CNC(=O)c1c(-c2ccc(F)cc2)oc2ccc(-c3cc(C(=O)NC4(c5ccccn5)CC4)c(OC)cc3OC)cc12 .
< 0.25 µM

If you can, please state the reported EC50 value of CNC(=O)c1c(-c2ccc(F)cc2)oc2ccc(-c3cc(C(=O)NC4(CO)CC4)ccc3C)cc12 .
1 to 10 µM

If you can, please state the reported EC50 value of CNC(=O)c1c(-c2ccc(F)cc2)oc2ccc(-c3cc(C(=O)O)ccc3OC(F)(F)F)cc12 .
> 10 µM

If you can, please state the reported EC50 value of CNC(=O)c1c(-c2ccc(F)cc2)oc2ccc(-c3cc(C(=O)NCC(C)C)ccc3OCC(N)=O)cc12 .
< 0.25 µM

If you can, please state the reported EC50 value of CNC(=O)c1c(-c2ccc(F)cc2)oc2ccc(-c3cc(OCc4cccnc4)cc(C(=O)NCC(C)C)c3)cc12 .
1 to 10 µM

---

target: HCV NS5B RdRp genotype 1b (Hepatitis C virus genotype 1b, UniProt Q9WMX2); construct: The protein was expressed with an 18 amino acid C-terminal truncation to enhance the solubility; made in house; host or cells: E. coli BL21(DE3), pET21a vector; test: Standard HCV NS5B RdRp enzyme assay; type: biochemical; conditions: Table 1a; HCV NS5B RdRp genotype 1b; read-out: IC50
Sequence (Q9WMX2 2420-2992): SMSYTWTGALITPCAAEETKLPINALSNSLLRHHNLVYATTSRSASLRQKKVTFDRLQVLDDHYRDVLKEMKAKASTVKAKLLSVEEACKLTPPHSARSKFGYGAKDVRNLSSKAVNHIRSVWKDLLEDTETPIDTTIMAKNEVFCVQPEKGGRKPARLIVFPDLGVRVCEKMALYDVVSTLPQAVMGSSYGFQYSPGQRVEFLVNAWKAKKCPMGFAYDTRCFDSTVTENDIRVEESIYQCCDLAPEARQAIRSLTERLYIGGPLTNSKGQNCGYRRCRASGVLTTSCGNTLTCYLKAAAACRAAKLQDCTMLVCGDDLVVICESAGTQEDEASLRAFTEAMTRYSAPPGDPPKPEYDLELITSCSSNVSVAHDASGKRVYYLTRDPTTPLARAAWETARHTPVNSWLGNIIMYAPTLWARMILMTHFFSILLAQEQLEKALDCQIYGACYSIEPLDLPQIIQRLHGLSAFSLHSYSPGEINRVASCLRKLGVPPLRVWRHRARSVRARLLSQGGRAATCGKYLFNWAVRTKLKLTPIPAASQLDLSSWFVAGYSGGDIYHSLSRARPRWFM
MEASURE_NAME: IC50

Please review the entries below; each comes with its answer.
ENTRY_SMILES: CNC(=O)c1c(-c2ccc(F)cc2)oc2ccc(-c3cccc(C(=O)Nc4cc(C)nn4C)c3)cc12
TARGET_OR_TEST_SYSTEM: HCV NS5B RdRp genotype 1b (Hepatitis C virus genotype 1b, UniProt Q9WMX2)
RECORDED_MEASUREMENT: < 250 nM

ENTRY_SMILES: CNC(=O)c1c(-c2ccc(F)cc2)oc2ccc(-c3cccc(C(=O)N4CCCCC4)c3)cc12
TARGET_OR_TEST_SYSTEM: HCV NS5B RdRp genotype 1b (Hepatitis C virus genotype 1b, UniProt Q9WMX2)
RECORDED_MEASUREMENT: 250 to 1000 nM

If you can, please state the reported IC50 value of CNC(=O)c1c(-c2ccc(F)cc2)oc2ccc(-c3ccc(C(=O)NCC(N)=O)cc3)cc12 .
> 10000 nM

If you can, please state the reported IC50 value of CNC(=O)c1c(-c2ccc(F)cc2)oc2ccc(-c3cccc(C(=O)N4CCN(CCOC)CC4)c3)cc12 .
> 10000 nM

If you can, please state the reported IC50 value of CNC(=O)c1c(-c2ccc(F)cc2)oc2ccc(-c3ccc(C(=O)NCCc4ccc(OC)cc4)cc3)cc12 .
> 10000 nM

If you can, please state the reported IC50 value of CNC(=O)c1c(-c2ccc(F)cc2)oc2ccc(-c3cc(C(=O)NCC(C)C)ccc3OC)cc12 .
< 250 nM

If you can, please state the reported IC50 value of CNC(=O)c1c(-c2ccc(F)cc2)oc2ccc(-c3cccc(C(=O)Nc4ccncn4)c3)cc12 .
250 to 1000 nM

If you can, please state the reported IC50 value of CNC(=O)c1c(-c2ccc(F)cc2)oc2ccc(-c3cccc(C(=O)Nc4ccc(C)cn4)c3)cc12 .
< 250 nM
